System: mice
Experiment: Forced swimming test (FST), immobility time
Assay type: in vivo
Conditions: 30 mg, intragastric administration, mice
Where a name gives a salt, the structure may show the parent alone.
property_label: antidepressant effect (immobility time)

Measured antidepressant effect (immobility time) of CN[C@@]1(c2ccccc2Cl)CCC[C@@H](OC(=O)c2ccccc2)C1=O : no antidepressant effect

Lab note: measured antidepressant effect (immobility time) of N[C@@]1(c2ccccc2Cl)CCC[C@@H](O)C1=O [HNK, (2R,6R)-6-hydroxydemethylketamine, reference compound] was antidepressant effect

Record N[C@@]1(c2ccccc2Cl)CCC[C@@H](OC(=O)c2ccoc2)C1=O [Compound I6, hydrochloride salt] . Reported antidepressant effect (immobility time): antidepressant effect

Sure, the documented antidepressant effect (immobility time) for N[C@]1(c2ccccc2Cl)CCC[C@H](OC(=O)c2ccc(CN3CCOCC3)cc2)C1=O is no antidepressant effect
